Data provenance: paper PMC6272846

- target.of.assay: p38α mitogen-activated protein kinase (Homo sapiens, UniProt Q16539)
- Sequence (Q16539 whole entry): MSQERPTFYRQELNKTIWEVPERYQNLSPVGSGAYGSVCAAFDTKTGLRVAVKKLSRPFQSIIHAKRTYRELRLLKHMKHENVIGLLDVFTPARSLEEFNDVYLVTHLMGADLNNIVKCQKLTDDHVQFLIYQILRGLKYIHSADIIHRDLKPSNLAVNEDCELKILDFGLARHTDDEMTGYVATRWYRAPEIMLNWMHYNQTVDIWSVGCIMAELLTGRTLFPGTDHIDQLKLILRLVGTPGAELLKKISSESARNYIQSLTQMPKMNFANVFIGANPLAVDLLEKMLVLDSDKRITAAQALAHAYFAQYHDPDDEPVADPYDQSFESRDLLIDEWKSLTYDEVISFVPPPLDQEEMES
- measurement.notes: Surface plasmon resonance (Biacore) binding to p38α
- test.settings: SPR, 25 °C
Could you please report measured Kd for the items listed next?
Give your result in nM as a bare value.

What does the data say about its Kd? Entry: CC(C)(C)c1cc(NC(=O)NCc2ccccc2Oc2ccc3[nH]ncc3c2)n(-c2ccccc2)n1 [25b]
382

Do the same for Cc1ccc(-n2nc(C(C)(C)C)cc2NC(=O)NCc2ccccc2Oc2ccc3[nH]ncc3c2)cc1 [25a] please
15.4

Do the same for Cc1cccc(-n2nc(C(C)(C)C)cc2NC(=O)NCc2ccccc2Oc2ccc3[nH]ncc3c2)c1 [25c] please
421

Do the same for CC(C)(C)c1cc(NC(=O)NCc2ccccc2Oc2ccc3[nH]ncc3c2)n(-c2ccc([N+](=O)[O-])cc2)n1 [25h] please
221

====

- target.of.assay: MAPK14/p38α (Homo sapiens, UniProt Q16539)
- Sequence (Q16539 whole entry): as above
- measurement.notes: p38α MAP kinase activity, phosphorylation of ATF-2 (TR-FRET)
- Assay type: biochemical
- test.settings: enzyme, GFP-ATF2 substrate, 90 μM ATP
Threshold-based label: IC50 under 4 nM gives TRUE, IC50 not under 4 nM gives FALSE.

Please determine if CC(C)(C)c1cc(NC(=O)NCc2ccccc2Oc2ccc3c(c2)CCCC3O)n(-c2ccc([N+](=O)[O-])cc2)n1 (centres unmarked) [27b] is below 4 nM in terms of IC50.
TRUE

Do the same for CC(C)(C)c1cc(NC(=O)NCc2ccccc2Oc2ccc3[nH]ncc3c2)n(-c2ccccc2)n1 [25b] please
TRUE

Do the same for CC(C)(C)c1cc(NC(=O)NCc2cc(F)ccc2Oc2ccc3c(c2)CCCC3O)n(-c2ccc([N+](=O)[O-])cc2)n1 (centres unmarked) [27d] please
FALSE

Do the same for COc1ccc(-n2nc(C(C)(C)C)cc2NC(=O)NCc2ccccc2Oc2ccc3[nH]ncc3c2)cc1 [25d] please
TRUE

Do the same for CC(C)(C)c1cc(NC(=O)NCc2ccccc2Oc2ccc3[nH]ncc3c2)n(-c2ccc(Br)cc2)n1 [25f] please
TRUE

Do the same for CC(C)(C)c1cc(NC(=O)NCc2ccccc2Oc2ccc3[nH]ncc3c2)n(-c2ccc(F)cc2)n1 [25g] please
TRUE

Do the same for Cc1ccc(-n2nc(C(C)(C)C)cc2NC(=O)NCc2cc(F)ccc2Oc2ccc3c(c2)CCCC3O)cc1 (centres unmarked) [27e] please
FALSE

Do the same for Cc1cccc(-n2nc(C(C)(C)C)cc2NC(=O)NCc2ccccc2Oc2ccc3[nH]ncc3c2)c1 [25c] please
TRUE

====

- Tested on: MAPKAPK2
- measurement.notes: Inhibition of MAPKAPK2 in GFP-MAPKAPk2_BHK cell model (nuclear translocation)
- Assay type: cell-based
- test.settings: GFP-MAPKAPk2_BHK cells; bound given in µM
measure.name: IC50

State its IC50 on MAPKAPK2: COc1ccc(-n2nc(C(C)(C)C)cc2NC(=O)Nc2ccccc2Oc2ccc3[nH]ncc3c2)cc1 [29d]
> 10 µM

Do the same for CC(C)(C)c1cc(NC(=O)Nc2ccccc2OCCN2CCOCC2)n(-c2ccc(Cl)cc2)n1 [28e] please
> 10 µM

Do the same for CC(C)(C)c1cc(NC(=O)Nc2ccccc2OCCN2CCOCC2)n(-c2ccc(F)cc2)n1 [28g] please
> 10 µM

Do the same for Cc1ccc(-n2nc(C(C)(C)C)cc2NC(=O)NCc2ccccc2OCCN2CCOCC2)cc1 [30b] please
> 3 µM

Do the same for CC(C)(C)c1cc(NC(=O)Nc2ccccc2OCCN2CCOCC2)n(-c2ccccc2)n1 [28b] please
> 10 µM

Do the same for CC(C)(C)c1cc(NC(=O)Nc2ccccc2Oc2ccc3[nH]ncc3c2)n(-c2ccc(Br)cc2)n1 [29f] please
> 10 µM

Do the same for CC(C)(C)c1cc(NC(=O)NCc2ccccc2OCCN2CCOCC2)n(-c2ccc(Cl)cc2)n1 [30a] please
> 3 µM

Do the same for CC(C)(C)c1cc(NC(=O)Nc2ccccc2OCCN2CCOCC2)n(-c2ccc(S(N)(=O)=O)cc2)n1 [28i] please
> 10 µM
